system: RKO (Colorectal Carcinoma); assay: combination Emax (second highest fraction inhibited in the dose matrix, 72 h); higher = more inhibition; extreme values may be limits of the assay
assay_metric: combination Emax

molecule	assay_metric	test_result
CN(CCO)CC[C@H](CSc1ccccc1)Nc1ccc(S(=O)(=O)NC(=O)c2ccc(N3CCC([C@@H](O)c4ccccc4-c4ccc(Cl)cc4)CC3)cc2)cc1S(=O)(=O)C(F)(F)F [AZD4320] + Cc1cc2ncnn2cc1Nc1ncc2c(n1)n(C1CCOCC1)c(=O)n2C [AZD7648] (first compound max 1 µM, 7x7, partner max 10 µM)	combination Emax	0.21
Cc1c2c(nn1C)CSCc1cc(n(C)n1)CSc1cc(c3ccccc3c1)OCCCc1c(C(=O)O)n(C)c3c-2c(Cl)ccc13 [AZD5991] + CN(C)CCCOc1ccc(-c2ccc3ncc4c(c3c2)n(C2CCOCC2)c(=O)n4C)cn1 [AZD0156] (first compound max 1 µM, 7x7, partner max 1 µM)	combination Emax	0.225

With those in mind, consider the next molecule.
Problem: combination Emax lookup needed for CN(CCO)CC[C@H](CSc1ccccc1)Nc1ccc(S(=O)(=O)NC(=O)c2ccc(N3CCC([C@@H](O)c4ccccc4-c4ccc(Cl)cc4)CC3)cc2)cc1S(=O)(=O)C(F)(F)F [AZD4320] + C[C@@H]1COCCN1C2=NC(=NC(=C2)C3(CC3)[S@](=N)(=O)C)C4=C5C=CNC5=NC=C4 [AZD6738] (first compound max 1 µM, 7x7, partner max 10 µM) , thanks.
Solution: 0.85
